ASSAY INFO: Urine pharmacokinetics of parsaclisib, cycle 1 day 15
Type: in vivo, Japanese patients
STATED CONDITIONS: human, urine, oral
ASSAY METRIC: CL renal (mL/min)

[[record]]
structure_string = "CCOc1c([C@H](C)n2nc(C)c3c(N)ncnc32)cc(Cl)c(F)c1[C@@H]1CNC(=O)C1"
u = "mL/min"
observed_measurement = 6.67


---

ASSAY INFO: Plasma pharmacokinetics of parsaclisib, cycle 1 day 15
Assay type: in vivo, Japanese patients
STATED CONDITIONS: human, plasma, oral, 20 mg
ASSAY METRIC: AUC

[[record]]
structure_string = "CCOc1c([C@H](C)n2nc(C)c3c(N)ncnc32)cc(Cl)c(F)c1[C@@H]1CNC(=O)C1"
observed_measurement = "20.5 µM·h"


The measured values listed here are drawn from paper PMC9128166.
